// provenance: the RNAGym collection of RNA variant scans (doi:10.1126/science.aae0568)

B1: tRNA (parent)
chain: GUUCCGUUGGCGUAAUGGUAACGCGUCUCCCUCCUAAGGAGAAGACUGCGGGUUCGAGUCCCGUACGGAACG

Variants of: B1
Assay: yeast fitness relative to wild type (ratio to wild type); higher = fitter; tRNA-Arg(CCU), competitive growth, 37 C, YPD
Fewer inactive variants are shown than the library holds.
Readout name: yeast fitness

For the variant U26A C27U C29A A65G G68C , give its reported yeast fitness. ≤ 0.5

For the variant U7G A14U , give its reported yeast fitness. 0.675

For the variant C4U A15C G51C A57G , give its reported yeast fitness. ≤ 0.5

For the variant G12A A15G C22U C31A U35G C61U A65C A69G , give its reported yeast fitness. ≤ 0.5

For the variant U8C G52A , give its reported yeast fitness. 0.765

For the variant G18A C27A , give its reported yeast fitness. 0.726

For the variant U28A C29G , give its reported yeast fitness. 0.558

For the variant C30A G44C U59A , give its reported yeast fitness. ≤ 0.5

For the variant G9A A14C C55U , give its reported yeast fitness. ≤ 0.5

For the variant A36U A57C , give its reported yeast fitness. 0.528

For the variant A57G G67U , give its reported yeast fitness. 0.869

For the variant U7C C11G U26C , give its reported yeast fitness. ≤ 0.5

For the variant G9A U16C , give its reported yeast fitness. 1.05

For the variant G9A A21G C61U A65U , give its reported yeast fitness. ≤ 0.5

For the variant C5U A14G C29U A37U , give its reported yeast fitness. ≤ 0.5

For the variant A21U U32G A37G A45G C55A , give its reported yeast fitness. ≤ 0.5

For the variant U8C A15U G38C G39A A43C C60G A65C , give its reported yeast fitness. ≤ 0.5

For the variant U7C C27U A45U C66U , give its reported yeast fitness. 0.617

For the variant C24U C62U , give its reported yeast fitness. 0.976

For the variant A57G U59A U64G , give its reported yeast fitness. ≤ 0.5

For the variant U32C G39A , give its reported yeast fitness. 0.928

For the variant G17C G52C U64A , give its reported yeast fitness. ≤ 0.5

For the variant U2A G9A C33A G68A , give its reported yeast fitness. ≤ 0.5

For the variant G23A A36C U47C G48C , give its reported yeast fitness. ≤ 0.5

For the variant U19C C30G U59C A69U , give its reported yeast fitness. ≤ 0.5

For the variant A14G C24G C31U C66G , give its reported yeast fitness. ≤ 0.5

For the variant C5G C24U G56C , give its reported yeast fitness. ≤ 0.5

For the variant C4A C22A C33A G39C , give its reported yeast fitness. ≤ 0.5

For the variant U8C U16A C27U C55G , give its reported yeast fitness. 0.691

For the variant G10A A14C C29A , give its reported yeast fitness. ≤ 0.5

For the variant C27U U35G A42U , give its reported yeast fitness. ≤ 0.5

For the variant U28A C46G , give its reported yeast fitness. 0.76

For the variant C4A G6C C55U G68C , give its reported yeast fitness. ≤ 0.5

For the variant U3A C4U , give its reported yeast fitness. 0.874

For the variant G9C C27U C33G , give its reported yeast fitness. ≤ 0.5

For the variant A37G G52C A70U , give its reported yeast fitness. 0.552

For the variant C5A C34G C49G U64C , give its reported yeast fitness. ≤ 0.5

For the variant C11U A36C , give its reported yeast fitness. 0.641

For the variant C4U G23C U47C C49A G68C , give its reported yeast fitness. ≤ 0.5

For the variant C4U A21U U26G G58A , give its reported yeast fitness. 0.522

For the variant A45U C55U C62A , give its reported yeast fitness. ≤ 0.5

For the variant C5U C46U C55A G56C , give its reported yeast fitness. ≤ 0.5

For the variant A14G A36U G50A C62G , give its reported yeast fitness. ≤ 0.5

For the variant U13C A14G C24G C49G A69G , give its reported yeast fitness. ≤ 0.5

For the variant A15U U54A , give its reported yeast fitness. 0.53

For the variant A14C U16C G51C G58A C60A , give its reported yeast fitness. ≤ 0.5
